Biological target: CYP17A1 (Homo sapiens, UniProt P05093)
Sequence (P05093 24-508 limits assumed): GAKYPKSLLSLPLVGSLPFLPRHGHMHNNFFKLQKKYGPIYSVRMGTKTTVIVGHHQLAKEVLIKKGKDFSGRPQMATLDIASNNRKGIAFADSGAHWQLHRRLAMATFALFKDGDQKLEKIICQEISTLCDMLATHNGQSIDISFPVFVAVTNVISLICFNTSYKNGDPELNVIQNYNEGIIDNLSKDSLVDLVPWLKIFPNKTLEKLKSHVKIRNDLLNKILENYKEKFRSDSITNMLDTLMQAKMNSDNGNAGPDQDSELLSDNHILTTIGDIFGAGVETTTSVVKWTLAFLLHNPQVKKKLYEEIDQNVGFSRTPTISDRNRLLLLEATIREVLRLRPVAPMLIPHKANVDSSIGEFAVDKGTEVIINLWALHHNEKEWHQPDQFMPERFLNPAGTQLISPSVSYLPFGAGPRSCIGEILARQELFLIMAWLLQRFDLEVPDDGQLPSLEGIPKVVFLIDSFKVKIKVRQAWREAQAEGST
pIC50: −log10 of the molar value.
readout: pIC50

>>> result("[C-]#[N+][C@H](C)[C@H]1CC[C@H]2[C@@H]3CC[C@H]4C[C@@H](OC=O)CC[C@]4(C)[C@H]3CC[C@]12C [Compound 16]")
5.89

----------
Molecular target: UniProt P05093
Experiment: Ligand binding assay, UV-visible difference spectra titration
Sequence (P05093 whole entry): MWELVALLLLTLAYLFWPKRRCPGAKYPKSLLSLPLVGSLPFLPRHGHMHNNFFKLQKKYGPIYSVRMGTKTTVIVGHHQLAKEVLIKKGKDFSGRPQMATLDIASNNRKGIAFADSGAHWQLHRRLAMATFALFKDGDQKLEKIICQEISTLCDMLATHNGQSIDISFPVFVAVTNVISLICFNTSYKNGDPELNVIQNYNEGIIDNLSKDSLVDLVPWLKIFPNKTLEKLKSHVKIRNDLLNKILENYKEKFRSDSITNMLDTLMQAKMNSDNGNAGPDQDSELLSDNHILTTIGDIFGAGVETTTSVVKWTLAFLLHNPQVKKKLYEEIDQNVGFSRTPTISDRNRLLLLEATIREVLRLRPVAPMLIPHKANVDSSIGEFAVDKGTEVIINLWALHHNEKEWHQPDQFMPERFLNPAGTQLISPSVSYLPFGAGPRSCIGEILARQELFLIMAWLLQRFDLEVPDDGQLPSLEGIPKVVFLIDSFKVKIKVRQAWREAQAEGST
readout: Kd

>>> result("[C-]#[N+][C@H](C)[C@H]1CC[C@H]2[C@@H]3CC[C@H]4C[C@@H](OC=O)CC[C@]4(C)[C@H]3CC[C@]12C [Compound 16]")
"< 0.1 µM"

----------
Biological target: CYP17A1 (Homo sapiens, UniProt P05093)
Assay: Ligand binding assay, UV-visible difference spectra titration
Conditions: CYP17A1 0.2 μM; tight binding, only estimates; read-out: Kd
Procedure: Ligand binding assays. (Adapted from DeVore, N M, et al. (2009). Drug Metabolism and Disposition, 37(6), 1319-1327.) Ligand interaction with the heme iron was evaluated by titrating ligands into a cuvette containing purified CYP17A1, CYP2D6, or CYP3A4 and measured using a UV-visible scanning spectrophotometer. […] Difference spectra were recorded from 300-500 nm after equilibration of enzyme and ligand. […]
pKd: −log10 of the molar value.
readout: pKd

>>> result("C[C@]12CC[C@H](O)CC1=CC[C@@H]1[C@@H]2CC[C@]2(C)C(c3cccnc3)=CC[C@@H]12 [abiraterone, reference compound]")
"> 7.00"

meta.source: patent US20240368212A1
